test system: Human promyelocytic leukemia (HL-60) cells; test: Cell viability (growth inhibition) assay, MTS; type: cell-based; settings: 50% reduction in cell viability of HL-60 cells, 48 hr incubation
Counter-ions that a name gives are not always drawn.
quantity_name: IC50 (µM)
Report as a plain number; the unit µM is understood.

Quick check: IC50 of CCCCCCCCOc1ccc(CCC(N)(CO)CO)cc1C12CC3CC(CC(C3)C1)C2.Cl [Example 63, hydrochloride salt] ? 2.4

Quick check: IC50 of `COc1ccc(-c2nc(-c3ccc4c(c3)CCN4CC(N)(CO)CO)no2)cc1C12CC3CC(CC(C3)C1)C2` ? 3.19

Quick check: IC50 of NC(CO)(CO)CCc1ccc(-c2ccc(O)c(C34CC5CC(CC(C5)C3)C4)c2)cc1 [Example 64, hydrochloride salt] ? 3.44

Quick check: IC50 of COc1ccc(CCc2ccc(CCC(N)(CO)CO)cc2)cc1C12CC3CC(CC(C3)C1)C2 [Example 26, hydrochloride salt] ? 2.29

Quick check: IC50 of `CC(C)Oc1ccc(CCN(C)CC(N)(CO)CO)cc1C12CC3CC(CC(C3)C1)C2` ? 3.3
